- assay details: Hepatic extraction ratio in rat liver microsomes at 1 uM measured upto 60 mins by LC-MS/MS analysis
quantity measured: hepatic extraction ratio at 1 h, 1 µM

compound: C[C@H](c1ccnc(Nc2nc3ccc(-c4cc(N(C)C)ncn4)cc3[nH]2)c1)N1CCN(C(=O)CC(F)(F)F)CC1 [BAY-985]
recorded value: 0.4

###

- assay details: Toxicity in NMRI mouse xenografted with human SK-MEL-2 cells assessed as maximum tolerated dose administered orally bid for 35 days
- recorded conditions: in vivo, po

molecular string: C[C@H](c1ccnc(Nc2nc3ccc(-c4cc(N(C)C)ncn4)cc3[nH]2)c1)N1CCN(C(=O)CC(F)(F)F)CC1
MTD at 840 h / mg/kg: 200

###

- assay details: Apparent permeability of compound across apical to basal membrane in human Caco2 cells at 2 uM in DMSO after 2 hrs by LC-MS/MS analysis
- Type: ADME, cell-based
- recorded conditions: Caco-2

molecular string: Cc1noc(-c2ccc3nc(Nc4cc(CN5CCN(C(=O)CC(F)(F)F)CC5)ccn4)[nH]c3c2)n1
Papp A→B at 2 h, 2 µM: 4.2 ×10⁻⁶ cm/s
--
molecular string: O=C(NCC1CC1)c1ccc2nc(Nc3cc(CN4CCN(C(=O)CC(F)(F)F)CC4)ccn3)[nH]c2c1
Papp A→B at 2 h, 2 µM: 0.39 ×10⁻⁶ cm/s
--
molecular string: C[C@H](c1ccnc(Nc2nc3ccc(-c4cnn(CC5CC5)c4)cc3[nH]2)c1)N1CCN(C(=O)CC(F)(F)F)CC1
Papp A→B at 2 h, 2 µM: 1.6 ×10⁻⁶ cm/s
--
molecular string: O=C(CC(F)(F)F)N1CCN(Cc2ccnc(Nc3nc4ccc(-c5cnn(CC6CC6)c5)cc4[nH]3)c2)CC1
Papp A→B at 2 h, 2 µM: 3.2 ×10⁻⁶ cm/s
--
molecular string: N#Cc1ccc2nc(Nc3cc(CN4CCN(C(=O)CC(F)(F)F)CC4)ccn3)[nH]c2c1
Papp A→B at 2 h, 2 µM: 3.2 ×10⁻⁶ cm/s
--
molecular string: Cc1noc(-c2ccc3nc(Nc4cc([C@H](C)N5CCN(C(=O)CC(F)(F)F)CC5)ccn4)[nH]c3c2)n1
Papp A→B at 2 h, 2 µM: 11.4 ×10⁻⁶ cm/s
--
molecular string: CCn1cc(-c2ccc3nc(Nc4cc(CN5CCN(C(=O)CC(F)(F)F)CC5)ccn4)[nH]c3c2)cn1
Papp A→B at 2 h, 2 µM: 1.7 ×10⁻⁶ cm/s
--
molecular string: COCc1cc(-c2ccc3nc(Nc4cc([C@@H](C)N5CCN(C(=O)CC(F)(F)F)CC5)ccn4)[nH]c3c2)ncn1
Papp A→B at 2 h, 2 µM: 1.4 ×10⁻⁶ cm/s

###

# IC50 listing for each entry below
- subject of test: Inhibitor of nuclear factor kappa-B kinase subunit epsilon (Homo sapiens)
- Sequence (Q14164 whole entry): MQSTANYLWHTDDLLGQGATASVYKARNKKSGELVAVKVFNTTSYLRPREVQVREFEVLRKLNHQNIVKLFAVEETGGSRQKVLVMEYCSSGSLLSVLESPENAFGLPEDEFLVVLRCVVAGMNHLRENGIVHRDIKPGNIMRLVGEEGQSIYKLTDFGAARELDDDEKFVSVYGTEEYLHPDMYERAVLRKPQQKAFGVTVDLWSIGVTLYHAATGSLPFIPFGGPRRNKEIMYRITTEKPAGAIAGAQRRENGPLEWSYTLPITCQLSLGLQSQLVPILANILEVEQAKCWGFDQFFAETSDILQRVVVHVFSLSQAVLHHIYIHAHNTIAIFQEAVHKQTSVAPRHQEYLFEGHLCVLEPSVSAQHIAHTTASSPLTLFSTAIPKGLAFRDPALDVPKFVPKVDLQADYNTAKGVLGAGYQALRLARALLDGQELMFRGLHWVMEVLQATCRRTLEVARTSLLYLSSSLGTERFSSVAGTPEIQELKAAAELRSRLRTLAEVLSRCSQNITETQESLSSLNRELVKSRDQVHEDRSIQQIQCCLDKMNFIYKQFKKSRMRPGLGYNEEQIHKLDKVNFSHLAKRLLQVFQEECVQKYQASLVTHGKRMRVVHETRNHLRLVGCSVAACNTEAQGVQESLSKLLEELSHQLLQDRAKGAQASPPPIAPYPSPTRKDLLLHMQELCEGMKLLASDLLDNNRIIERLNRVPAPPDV
- assay details: Inhibition of recombinant full length human C-terminal GST-tagged IKKepsilon expressed in baculovirus expression system using biotin-labelled Ahx-GDEDFSSFAEPG peptide as substrate preincubated with enzyme for 15 mins followed by substrate addition and further incubated for 30 mins in presence of 10 uM of ATP by TR-FRET assay

molecule: CC(C)Cc1noc(-c2ccc3nc(Nc4cc(CN5CCN(C(=O)CC(F)(F)F)CC5)ccn4)[nH]c3c2)n1
IC50 [nM]: 89
--
molecule: CCn1cc(-c2ccc3nc(Nc4cc(CN5CCN(C(=O)CC(F)(F)F)CC5)ccn4)[nH]c3c2)cn1
IC50 [nM]: 98
--
molecule: O=C(CC(F)(F)F)N1CCN(Cc2ccnc(Nc3nc4ccc(-c5nc(C6CC6)no5)cc4[nH]3)c2)CC1
IC50 [nM]: 41
--
molecule: Cc1cc(-c2ccc3nc(Nc4cc([C@@H](C)N5CCN(C(=O)CC(F)(F)F)CC5)ccn4)[nH]c3c2)ncn1
IC50 [nM]: 4
--
molecule: N#Cc1ccc2nc(Nc3cc(CN4CCN(C(=O)CC(F)(F)F)CC4)ccn3)[nH]c2c1
IC50 [nM]: 17
--
molecule: CN(C)c1ncnc(-c2ccc3nc(Nc4cc(CN5CCN(C(=O)CC(F)(F)F)CC5)ccn4)[nH]c3c2)c1Cl [BAY-440]
IC50 [nM]: 1280
--
molecule: Cc1cc(-c2ccc3nc(Nc4cc(CN5CCN(C(=O)CC(F)(F)F)CC5)ccn4)[nH]c3c2)ncn1
IC50 [nM]: 16
--
molecule: C[C@H](c1ccnc(Nc2nc3ccc(-c4cnn(CC5CC5)c4)cc3[nH]2)c1)N1CCN(C(=O)CC(F)(F)F)CC1
IC50 [nM]: 6
--
molecule: Cn1cc(-c2ccc3nc(Nc4cc(CN5CCN(C(=O)CC(F)(F)F)CC5)ccn4)[nH]c3c2)cn1
IC50 [nM]: 197
--
molecule: Cc1cc(-c2ccc3nc(Nc4cc(CN5CCN(C(=O)CC(F)(F)F)CC5)ccn4)[nH]c3c2)ccn1
IC50 [nM]: 15
--
molecule: O=C(NCC1CC1)c1ccc2nc(Nc3cc(CN4CCN(C(=O)CC(F)(F)F)CC4)ccn3)[nH]c2c1
IC50 [nM]: 80
--
molecule: Cc1noc(-c2ccc3nc(Nc4cc(CN5CCNCC5)ccn4)[nH]c3c2)n1
IC50 [nM]: 940
--
molecule: CNc1cc(-c2ccc3nc(Nc4cc(CN5CCN(C(=O)CC(F)(F)F)CC5)ccn4)[nH]c3c2)ncn1
IC50 [nM]: 10
--
molecule: CN(C)c1cc(-c2ccc3nc(Nc4cc(CN5CCN(C(=O)CC(F)(F)F)CC5)ccn4)[nH]c3c2)ccn1
IC50 [nM]: 35
--
molecule: Cc1noc(-c2ccc3nc(Nc4cc(CN5CCN(CC(F)F)CC5)ccn4)[nH]c3c2)n1
IC50 [nM]: 730
--
molecule: C[C@H](c1ccnc(Nc2nc3ccc(-c4cc(N(C)C)ncn4)cc3[nH]2)c1)N1CCN(C(=O)CC(F)(F)F)CC1 [BAY-985]
IC50 [nM]: 2
